Biological target: human 15-PGDH (Homo sapiens)
Construct: comprising residues 3–256 of the human HPGD gene (GenBank identifier: 1203982); His6 (GHHHHHH, behind the TEV site) (C, cleaved yes); made in house; host or cells: E. coli BL21(DE3)-R3
Sequence (P15428 3-256): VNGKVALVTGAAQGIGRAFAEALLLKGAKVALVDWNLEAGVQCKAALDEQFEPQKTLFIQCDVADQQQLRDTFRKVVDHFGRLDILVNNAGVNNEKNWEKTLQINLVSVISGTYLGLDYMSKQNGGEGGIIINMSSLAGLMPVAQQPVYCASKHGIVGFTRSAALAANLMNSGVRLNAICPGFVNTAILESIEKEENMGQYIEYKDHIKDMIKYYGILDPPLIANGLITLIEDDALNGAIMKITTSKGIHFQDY
Test: Differential scanning fluorimetry (DSF), thermal stabilization
Format: binding
Conditions: without cofactor; 1 µM protein, compound 50 or 250 µM; N/A = no unfolding transition observed in DSF
Criterion: ∆Tm [°C] apo strictly less than -1 °C. Met: 1 (yes). Not met: 0 (no).

Ask: Determine if CCCC(CCCCCCC(=O)c1cn(CCCC(=O)OCC)c2ccccc12)c1ccc(CC(C)C)cc1 (centres unmarked) shows ∆Tm [°C] apo strictly lower than -1 °C.
Result: 0 (no)

Ask: # strict comparison: is reported ∆Tm [°C] apo < -1 °C? input = COc1ccccc1C(=O)Nc1ccc(C(=O)N2CCCC2)cc1
Result: 0 (no)

Ask: Input CCCC(C(=O)O)C(C)(C)O (centres unmarked) ; condition: ∆Tm [°C] apo strictly below -1 °C. Does it hold?
Result: 1 (yes)

Ask: Report whether reported ∆Tm [°C] apo is lower than -1 °C (strictly) for Cc1cc(C(=O)N2CCN(C)CC2)c(C)n1C1CC1
Result: 1 (yes)

Ask: Strictly below -1 °C: is that where ∆Tm [°C] apo of Cc1cc([N+](=O)[O-])c2c(c1C)[C@@H]1C=CC[C@@H]1C(c1cccc(Cl)c1)N2 (some centres unmarked) sits?
Result: 1 (yes)

Ask: Is the reported ∆Tm [°C] apo for COc1ccccc1NS(=O)(=O)c1cc(C(=O)N2CCC2)ccc1C strictly below -1 °C?
Result: 0 (no)

Ask: Lab log: compare recorded ∆Tm [°C] apo with -1 °C; is it strictly lower for COCCNC(=O)c1cc2oc3ccccc3c2n1C ?
Result: 1 (yes)

Ask: Dear reviewer, please state whether O=c1c2ccccc2sn1-c1cc(S(=O)(=O)N2CCOCC2)ccc1N1CCCC1 has ∆Tm [°C] apo strictly beneath -1 °C.
Result: 1 (yes)

Ask: # check: ∆Tm [°C] apo < -1 °C for C[C@H]1CCCCN1C(=O)CSc1nnc(-c2ccccc2F)o1
Result: 0 (no)

Ask: Lab note: ∆Tm [°C] apo threshold -1 °C. Does this molecule come in strictly under it? Cc1ccc2cc3c(N)c(C(=O)N4CCC(C)CC4)sc3nc2c1
Result: 0 (no)

Ask: Below -1 °C on ∆Tm [°C] apo? Entry CCCCCCOCCCCc1ccc(-c2ccc(OCCCCCCC3CC3)nc2)nn1
Result: 0 (no)

Ask: Hello, I'm reviewing records and need to know if ∆Tm [°C] apo of CC(O)CN(C)C(C)N(CCN(C)C)CCN(C)C (centres unmarked) is below -1 °C. Could you check?
Result: 0 (no)

Ask: Could you please tell me whether ∆Tm [°C] apo recorded for CN(CCc1ccccn1)CC(=O)Nc1ccc(OC(F)(F)F)cc1 is less than -1 °C?
Result: 1 (yes)

Ask: Item Cc1cc(=O)oc2cc(OCC(=O)N3CCCc4ccccc43)ccc12 : ∆Tm [°C] apo beneath -1 °C, strictly?
Result: 1 (yes)
